# Assay name: Solubility study of crystal form I
# Assay type: physicochemical
# Test settings: acetonitrile-water 9:1, organic solvent or mixture, thermodynamic from solid
Measured endpoint: solubility

Recorded solubility (compound COc1cnc(-c2c(OC)ncnc2C2CC2)nc1NCC12CCC(c3nc(C(F)(F)F)cn3C)(CC1)CC2 [crystal form I] ): > 32.4 mg/mL

###

# Assay name: Solubility study of crystal form I
# Format: physicochemical
# Test settings: acetonitrile, organic solvent or mixture, thermodynamic from solid
Measured endpoint: solubility

Recorded solubility (molecule COc1cnc(-c2c(OC)ncnc2C2CC2)nc1NCC12CCC(c3nc(C(F)(F)F)cn3C)(CC1)CC2 [crystal form I] ): 14.2 to 28.4 mg/mL

Taken from patent EP4741387A1.
